Hello, the source for this data is ChEMBL document CHEMBL4052617, in case you need it.

# System: Bacillus subtilis
# measurement.description: Antibacterial activity against Bacillus subtilis 168 after 18 hrs by Mueller-Hinton broth microdilution method
# Format: functional
# experimental.parameters: subsp. subtilis str. 168, 18 h
Documented MIC across a set of molecules
Give the number; µg/mL is assumed, so skip it.

Consider the following illustrative entries.
CN[C@H](CC(C)C)C(=O)N[C@H]1C(=O)N[C@@H](CC(N)=O)C(=O)N[C@H]2C(=O)N[C@H]3C(=O)N[C@H](C(=O)N[C@H](C(=O)O)c4cc(O)cc(O)c4-c4cc3ccc4O)[C@H](O)c3ccc(c(Cl)c3)Oc3cc2cc(c3O[C@@H]2O[C@H](CO)[C@@H](O)[C@H](O)[C@H]2O[C@H]2C[C@](C)(N)[C@H](O)[C@H](C)O2)Oc2ccc(cc2Cl)[C@H]1O : 1
Cc1ccccc1Nc1c2ccccc2[n+](C)c2c1[nH]c1ccccc12.[I-] : 6
C[n+]1c2ccccc2c(Nc2ccc(Cl)cc2)c2oc3ccccc3c21.[I-] : 6
Cc1ccc(Nc2c3ccccc3[n+](C)c3c2[nH]c2ccccc23)cc1.[I-] : 4

From here, focus on the item given below.
(Q) Form field: MIC recorded for `C[n+]1c2ccccc2c(Nc2ccc(F)cc2F)c2oc3ccccc3c21.[I-]` with Bacillus subtilis (enter value)
(A) 6
